Where do these numbers come from? They come from ChEMBL document CHEMBL4130502.

Test: Stability in human liver microsomes assessed as parent compound remaining at 1 uM preincubated for 5 mins followed by NADPH addition measured after 30 mins by LC-MS/MS analysis
Type: ADME, microsome
Settings: read-out: Stability
Measured attribute: remaining at 0.5 h, 1 µM

In [3]: df
Out[3]:
                                chem_smiles  endpoint_value
0  CCc1nnc(SCC(=O)N(C)c2ccccc2)c2cc3sc(C)cc3n12            8.8%
1  CCc1nnc(SCC(=O)N(C)c2ccccc2)c2cc3sccc3n12              5%

----------
Target: CYP2D6 (Homo sapiens)
Sequence (P10635 whole entry): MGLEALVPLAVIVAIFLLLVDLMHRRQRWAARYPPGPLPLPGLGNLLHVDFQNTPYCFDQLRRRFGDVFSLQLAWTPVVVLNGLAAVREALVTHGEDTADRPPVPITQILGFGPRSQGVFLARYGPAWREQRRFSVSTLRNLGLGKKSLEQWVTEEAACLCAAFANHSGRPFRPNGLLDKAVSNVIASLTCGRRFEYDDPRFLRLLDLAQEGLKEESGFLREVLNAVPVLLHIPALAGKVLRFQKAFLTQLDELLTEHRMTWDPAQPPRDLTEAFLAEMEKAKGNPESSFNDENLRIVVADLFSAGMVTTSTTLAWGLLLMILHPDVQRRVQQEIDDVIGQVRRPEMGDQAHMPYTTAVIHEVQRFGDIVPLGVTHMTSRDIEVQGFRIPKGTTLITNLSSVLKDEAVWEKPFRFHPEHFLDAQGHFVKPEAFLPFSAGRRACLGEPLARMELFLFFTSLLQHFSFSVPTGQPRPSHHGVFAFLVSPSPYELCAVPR
Experiment: Inhibition of human CYP2D6 assessed as remaining enzyme activity at 10 uM preincubated for 5 mins followed by Vivid CYP substrate addition measured after 20 mins by fluorescence assay relative to control
Assay type: ADME
Settings: probe Vivid CYP substrate, read-out: Activity
This section presents compounds with their documented activity at 20 min, 10 µM values.
Measured attribute: activity at 20 min, 10 µM

>>> df
                                chem_smiles  endpoint_value
0  CCc1nnc(SCC(=O)N2CCN(c3ccccc3)CC2)c2cc3sc(C)cc3n12           81.7%
1  CCc1nnc(SCC(=O)Nc2ccccc2)c2cc3sc(C)cc3n12             17%
2  CCc1nnc(SCC(=O)Nc2ccc(OC)c(OC)c2)c2cc3sc(C)cc3n12           54.2%
3  CCN(Cc1ccccc1)C(=O)CSc1nnc(C)n2c1cc1sc(C)cc12           38.4%
4  Cc1nnc(SCC(=O)N(C)c2ccccc2)c2cc3sccc3n12           48.8%
5  CCc1nnc(SCC(=O)N(C)c2ccccc2)c2cc3sc(C)cc3n12           60.4%
6  CCc1nnc(SCC(=O)N(C)c2ccccc2)c2cc3sccc3n12           49.5%
